Assignment: determine reported Potency for the given compounds.
runDescription: qHTS profiling for inhibitors of Plasmodium falciparum proliferation (AID 504749); further: potency means the concentration at half of the fitted maximal effect; nearly all actives have a fitted effect of over 60% in size
reportedConditions: P. falciparum in erythrocytes, SYBR Green DNA, 72 h; parasite line A
Results filed as inconclusive are left out. Activity calls are given as the source filed them. The call rests on the fitted dose curve; in most records, active means well fitted inhibition curve with a large enough effect; inconclusive means small, poorly fitted or top-dose-only effect; inactive means flat fitted curve, though single readings scatter.

Here is how some compounds turned out for Potency.
Sample CC[C@]1(O)C[C@H]2CN(CCc3c([nH]c4ccccc34)[C@@](C(=O)OC)(c3cc4c(cc3OC)N(C=O)[C@H]3[C@@](O)(C(=O)OC)[C@H](OC(C)=O)[C@]5(CC)C=CCN6CC[C@]43[C@@H]65)C2)C1 ; Potency observed: 2.24 µM (active)

Sample Clc1ccc(C(Cn2ccnc2)OCc2ccsc2Cl)c(Cl)c1 (centres undefined) ; Potency observed: 2.82 µM (active)

Sample CCCCCCCCOc1ccccc1C(=O)Nc1ccc(C(=O)OCC[N+](C)(CC)CC)cc1 ; Potency observed: 12.6 µM (active)

Further cases:
Sample Cc1cc(=O)c2c(O)c3c(O)cc(=O)c4c3c3c(cc(O)c1c23)C(C)(C)C=4O ; Potency observed: 2.51 µM (active)

Reference source: PubChem BioAssay (NCATS)
